meta.source: ChEMBL document CHEMBL1165865

# Tested on: Nakaseomyces glabratus
# Method description: Antifungal activity against Candida glabrata ATCC 3916 after 24 hrs by macrodilution method
# Assay type: functional
# Condition label: ATCC 3916, 24 h
Test readout: MIC (µg/mL)
Give the value in µg/mL but do not write µg/mL after it.

Query :: Endpoint output: MIC of `C[C@@H]1[C@H](O)[C@@H](C)/C=C/C=C/C=C/C=C/C=C/C=C/C=C/[C@H](O[C@@H]2O[C@H](C)[C@@H](O)[C@H](N)[C@@H]2O)C[C@@H]2O[C@](O)(C[C@@H](O)C[C@@H](O)[C@H](O)CC[C@@H](O)C[C@@H](O)CC(=O)O[C@H]1C)C[C@H](O)[C@H]2C(=O)O` . Value?
Result :: 0.4

Query :: Another compound: `OC(Cn1cncn1)(Cn1cncn1)c1ccc(F)cc1F`
Result :: 50

Query :: Another compound: Cc1cc2nnn(CC(O)(Cn3cncn3)c3ccc(F)cc3F)c2cc1C (racemic)
Result :: 100

Query :: Another compound: OC(Cn1cncn1)(Cn1nnc2cc(F)ccc21)c1ccc(F)cc1F (racemic)
Result :: 25

Query :: Another compound: O=[N+]([O-])c1ccc2c(c1)nnn2CC(O)(Cn1cncn1)c1ccc(F)cc1F (racemic)
Result :: 100

Query :: Another compound: OC(Cn1cncn1)(Cn1nnc2ccccc21)c1ccc(F)cc1F (racemic)
Result :: 25

Query :: Another compound: Cc1ccc2c(c1)nnn2CC(O)(Cn1cncn1)c1ccc(F)cc1F (racemic)
Result :: 25

Query :: Another compound: Cc1ccc2nnn(CC(O)(Cn3cncn3)c3ccc(F)cc3F)c2c1 (racemic)
Result :: 50

Query :: Another compound: COc1ccc2c(c1)nnn2CC(O)(Cn1cncn1)c1ccc(F)cc1F (racemic)
Result :: 50

Query :: Another compound: OC(Cn1cncn1)(Cn1nnc2cc(Cl)ccc21)c1ccc(F)cc1F (racemic)
Result :: 50

Query :: Another compound: Cc1cc2nn(CC(O)(Cn3cncn3)c3ccc(F)cc3F)nc2cc1C (racemic)
Result :: 25

Query :: Another compound: OC(Cn1cncn1)(Cn1nnc2cccnc21)c1ccc(F)cc1F (racemic)
Result :: 100
